experiment: Inhibition of [3H]estradiol binding to Estrogen receptor beta
Measured Ki, listed per entry for reference.
Enter your answer as a number in nM; do not include the unit.

Please review the entries below; each comes with its answer.
molecule: Oc1ccc2c(c1)Cc1ccc3cc(O)ccc3c1C2c1ccc(OCCN2CCCCC2)cc1 (stereo in doubt; form 1)
readout.value: 5.5

molecule: Oc1ccc2c3c(sc2c1)Cc1ccccc1C3c1ccc(C(O)CCN2CCCCC2)cc1 (stereo not drawn)
readout.value: 5.3

Lab note: "Oc1ccc2c(ccc3cc4ccc(O)cc4c(-c4ccc(OCCN5CCCCC5)cc4)c32)c1" gave Ki of 0.5

Lab note: Oc1ccc2c3c(ccc2c1)Cc1cccc(O)c1C3c1ccc(OCCN2CCCCC2)cc1 (stereo not drawn) gave Ki of 40

Lab note: Oc1ccc2c(c1)Cc1ccc3cc(O)ccc3c1C2c1ccc(OCCN2CCCCC2)cc1 (stereo in doubt; form 2) gave Ki of 4.2

Lab note: Oc1ccc2c(c1)Cc1ccc3cc(O)ccc3c1C2c1ccc(OCCN2CCCCC2)cc1 (single isomer, unassigned) gave Ki of 4.4

Lab note: Oc1ccc2c3c(sc2c1)Cc1cccc(O)c1C3c1ccc(C(O)CCN2CCCCC2)cc1 (stereo not drawn) gave Ki of 14

Lab note: "CCC(=C(c1ccc(O)cc1)c1ccc(OCCN(C)C)cc1)c1ccccc1" gave Ki of 0.5

Lab note: Oc1ccc2c3c(ccc2c1)Cc1c(O)cccc1C3c1ccc(OCCN2CCCCC2)cc1 (stereo not drawn) gave Ki of 5.4

Lab note: Oc1ccc2c(c1)sc1cc3ccc(O)cc3c(-c3ccc(C(O)CCN4CCCCC4)cc3)c12 (stereo not drawn) gave Ki of 0.3
